- System: plasma lipoperoxidation
- Method: In vitro plasma lipoperoxidation inhibitory activity (malondialdehyde production)
- Type: biochemical, Wister rats
- Conditions used: rat heparinized plasma, test compound final concentration 10^-5M, copper sulfate, malondialdehyde production vs control
Experimental endpoint: Inhibition (%) of plasma lipoperoxidation
Answers are plain numbers, in %.

Solved entries (count: 2):
Compound	Experimental result
CCCCCCCCN1CCc2cc(CC(=O)O)c(C)c(NC(=O)C(C)(C)C)c21 [Example 71]	48.1
CCCCSCCCCCCN1CCc2c(C)c(CC(=O)O)c(C)c(NC(=O)C(C)(C)C)c21	41.6

# return Inhibition (%) of plasma lipoperoxidation for each item in the list
1. CCCCCCCCN1CCCc2c(C)c(CC(=O)O)c(C)c(NC(=O)C(C)(C)C)c21
2. CCCCCCCCN1CCc2cc(CC(=O)O)c(C)c(NC(=O)C(C)(C)C)c21 [Example 116]

Result:
1. 48.0
2. 45.5

These entries and their values trace back to patent USRE38970E1.
